Exercise: for every item that follows, state its recorded half-life.
Test: clinical
Details: human, in vivo, iv, t1/2
Answers are plain numbers, in h.

{"COMPOUND": "COc1cc(CC2c3c(cc(OC)c(OC)c3OC)CC[N+]2(C)CCCOC(=O)CCC(=O)OCCC[N+]2(C)CCc3cc(OC)c(OC)c(OC)c3C2Cc2cc(OC)c(OC)c(OC)c2)cc(OC)c1OC (stereo unspecified) [DOXACURIUM]", "UNIT_SYMBOL": "h", "READING": 1.7}

Count: 5. Required value per item: half-life.
1. COc1cccc(C2(O)CCCCC2CN(C)C)c1 (stereo unspecified) [TRAMADOL]
2. CN1CCN(c2c(F)cc3c(=O)c(C(=O)O)cn(CCF)c3c2F)CC1 [FLEROXACIN]
3. CCCC(C)C1(CC)C(=O)NC(=O)NC1=O (stereo unspecified) [PENTOBARBITAL]
4. COc1cc2c(cc1OC)CN(c1cc(N)c3cc(OC)c(OC)cc3n1)CC2 [ABANOQUIL]
5. Clc1cccc(N2CCNCC2)c1 [CHLOROPHENYLPIPERAZINE]

Response:
1. 5.8
2. 8.6
3. 22
4. 5.9
5. 4.7

----------
Experiment: clinical
Conditions: human, in vivo, iv, t1/2
MEASURED_METRIC: log10 of half-life (log10 of the value in h)
Each number you see is log10 of half-life, and the unit inside the log is h.

Known results for compounds:
{"COMPOUND": "CN(C)Cc1nnc2n1-c1ccc(Cl)cc1C(c1ccccc1)=NC2 [ADINAZOLAM]", "log10 of half-life": 0.32}
{"COMPOUND": "CC(C)[C@@H](CC[C@@H](C)[C@H]1CC[C@H]2[C@@H]3[C@H](O)C[C@H]4C[C@@H](NCCCNCCCCN)CC[C@]4(C)[C@H]3CC[C@]12C)OS(=O)(=O)O [SQUALAMINE]", "log10 of half-life": 0.98}

Count: 6. Required value per item: log10 of half-life.
1. Cc1ccc(-c2ncc(Cl)cc2-c2ccc(S(C)(=O)=O)cc2)cn1 [ETORICOXIB]
2. Cc1cccc(C)c1OCC(C)N (centres undefined) [MEXILETINE]
3. CCC(CC)O[C@@H]1C=C(C(=O)O)C[C@H](N)[C@H]1NC(C)=O [OSELTAMIVIR CARBOXYLATE]
4. COC(=O)Nc1nc2ccc(C(=O)c3ccccc3)cc2[nH]1 [MEBENDAZOLE]
5. CC1=C(CO)C2=C(C)C3(CC3)[C@@](C)(O)C(=O)C2=C1 [IROFULVEN]
6. Cc1cnc(NCCCN(C)C)c2c1[nH]c1ccc3cc(O)ccc3c12 [INTOPLICINE]

Response:
1. 1.41
2. 1.00
3. 0.26
4. 0.04
5. -0.52
6. 1.28

Count: 2. Required value per item: log10 of half-life.
1. CCCC[C@@H]1CC(=O)[C@]2(O)O[C@@H]3[C@@H](NC)[C@@H](O)[C@@H](NC)[C@H](O)[C@H]3O[C@@H]2O1 [TROSPECTOMYCIN]
2. CO[C@@]1(NC(=O)C(C(=O)O)c2ccc(O)cc2)C(=O)N2C(C(=O)O)=C(CSc3nnnn3C)CO[C@@H]21 (some centres undefined) [MOXALACTAM]

Response:
[1.04, 0.46]

Count: 7. Required value per item: log10 of half-life.
1. Cn1c(=O)c2c(ncn2C)n(C)c1=O [CAFFEINE]
2. CC1(C)O[C@@H]2C[C@H]3[C@@H]4CCC5=CC(=O)C=C[C@]5(C)[C@@]4(F)[C@@H](O)C[C@]3(C)[C@]2(C(=O)CO)O1 [TRIAMCINOLONE ACETONIDE]
3. C[C@H]1O[C@@H](O[C@H]2[C@@H](O)C[C@H](O[C@H]3[C@@H](O)C[C@H](O[C@H]4CC[C@@]5(C)[C@H](CC[C@@H]6[C@@H]5C[C@@H](O)[C@]5(C)[C@@H](C7=CC(=O)OC7)CC[C@]65O)C4)O[C@@H]3C)O[C@@H]2C)C[C@H](O)[C@@H]1O [DIGOXIN]
4. CN1CCN(CCCN2c3ccccc3Sc3ccc(Cl)cc32)CC1 [PROCHLORPERAZINE]
5. O=C(O[C@H]1CN2CCC1CC2)N1CCc2ccccc2[C@@H]1c1ccccc1 [SOLIFENACIN]
6. C[C@@H]1CC2=CC(=O)CC[C@]2(C)[C@H]2CC[C@@]3(C)[C@@H](CC[C@@H]3O)[C@]12C
7. COC(=O)C1=C(C)NC(C)=C(C(=O)OCCN(C)Cc2ccccc2)C1c1cccc([N+](=O)[O-])c1 (centres undefined) [NICARDIPINE]

Response:
[0.69, 0.38, 1.58, 0.95, 1.72, -0.19, 0.61]

Count: 2. Required value per item: log10 of half-life.
1. CCC(CC)COC(C(=O)OCCN(C)C)(c1ccccc1)c1ccccc1 [DENAVERINE]
2. NC12CC3CC(CC(C3)C1)C2 [AMANTADINE]

Response:
1. 1.53
2. 1.20

----------
Exercise: for every item that follows, state its recorded fraction unbound.
Test: clinical
Conditions: human, in vivo, iv
One number for each entry.

Known results for compounds:
{"COMPOUND": "COC(=O)CCc1ccc(OCC(O)CNC(C)C)cc1 (stereo not drawn) [ESMOLOL]", "fraction unbound": 0.59}
{"COMPOUND": "CN[C@@H]1C[C@H]2O[C@@](C)([C@@H]1OC)n1c3ccccc3c3c4c(c5c6ccccc6n2c5c31)C(=O)N[C@@H]4O", "fraction unbound": 0.0022}
{"COMPOUND": "Nc1cc(-c2ccncc2)c[nH]c1=O [INAMRINONE]", "fraction unbound": 0.89}
{"COMPOUND": "CCC1CN2CCC1CC2[C@@H](O)c1ccnc2ccc(OC)cc12 (stereo partly drawn) [DIHYDROQUINIDINE]", "fraction unbound": 0.22}
{"COMPOUND": "OCCN1CCN(CCCN2c3ccccc3Sc3ccc(Cl)cc32)CC1 [PERPHENAZINE]", "fraction unbound": 0.07}
{"COMPOUND": "O=C1C(O)=C([C@H]2CC[C@H](c3ccc(Cl)cc3)CC2)C(=O)c2ccccc21 [ATOVAQUONE]", "fraction unbound": 0.001}
{"COMPOUND": "CC(=O)OCC1=C(C(=O)O)N2C(=O)[C@@H](NC(=O)CSc3ccncc3)[C@H]2SC1 [CEPHAPIRIN]", "fraction unbound": 0.55}
{"COMPOUND": "CO/N=C(\\C(=O)N[C@@H]1C(=O)N2C(C(=O)O)=C(CSc3nc(=O)c(=O)[nH]n3C)CS[C@H]12)c1csc(N)n1 [CEFTRIAXONE]", "fraction unbound": 0.052}
{"COMPOUND": "CCC[C@@H]1C[C@@H](C(=O)N[C@@H]([C@H]2O[C@H](SC)[C@H](O)[C@@H](O)[C@H]2O)[C@@H](C)O)N(C)C1 [LINCOMYCIN]", "fraction unbound": 0.14}
{"COMPOUND": "Cc1cccc(C)c1NC(=O)NCCCNC(C)C", "fraction unbound": 0.86}

Count: 6. Required value per item: fraction unbound.
1. CC(=O)Nc1c(I)c(C(=O)O)c(I)c(N(C)C(C)=O)c1I [METRIZOIC ACID]
2. CN1CCc2cccc3c2[C@H]1Cc1ccc(O)c(O)c1-3 [APOMORPHINE]
3. CCC1(c2cccc(O)c2)CCCCN(C)C1 (stereo not drawn) [MEPTAZINOL]
4. COc1ccc(CC2c3cc(OC)c(OC)cc3CC[N+]2(C)CCC(=O)OCCCCCOC(=O)CC[N+]2(C)CCc3cc(OC)c(OC)cc3C2Cc2ccc(OC)c(OC)c2)cc1OC (stereo not drawn)
5. COc1cc2c(cc1OC)[C@@H](Cc1cc(OC)c(OC)c(OC)c1)[N+](C)(CCCOC(=O)CC/C=C/CCC(=O)OCCC[N+]1(C)CCc3cc(OC)c(OC)cc3[C@H]1Cc1cc(OC)c(OC)c(OC)c1)CC2 (stereo partly drawn)
6. CN(C)[C@@H]1C(O)=C(C(N)=O)C(=O)[C@@]2(O)C(O)=C3C(=O)c4c(O)ccc(Cl)c4[C@@H](O)[C@H]3C[C@@H]12 [DEMECLOCYCLINE]

Response:
1. 1
2. 0.057
3. 0.73
4. 0.52
5. 0.7
6. 0.59

Count: 2. Required value per item: fraction unbound.
1. CCCCCCCCCC(=O)N[C@@H](Cc1c[nH]c2ccccc12)C(=O)N[C@H](CC(N)=O)C(=O)N[C@@H](CC(=O)O)C(=O)N[C@@H]1C(=O)NCC(=O)N[C@@H](CCCN)C(=O)N[C@@H](CC(=O)O)C(=O)N[C@H](C)C(=O)N[C@@H](CC(=O)O)C(=O)NCC(=O)N[C@H](CO)C(=O)N[C@@H]([C@H](C)CC(=O)O)C(=O)N[C@@H](CC(=O)c2ccccc2N)C(=O)O[C@@H]1C
2. CC(=O)N[C@@H](CS)C(=O)O [ACETYLCYSTEINE]

Response:
[0.083, 0.17]
